targetEntity: PDGFRB (Homo sapiens, UniProt P09619)
Construct: Kinases are expressed as either kinase domains or full length constructs; made in house
Sequence (P09619 33-1106, species assumed): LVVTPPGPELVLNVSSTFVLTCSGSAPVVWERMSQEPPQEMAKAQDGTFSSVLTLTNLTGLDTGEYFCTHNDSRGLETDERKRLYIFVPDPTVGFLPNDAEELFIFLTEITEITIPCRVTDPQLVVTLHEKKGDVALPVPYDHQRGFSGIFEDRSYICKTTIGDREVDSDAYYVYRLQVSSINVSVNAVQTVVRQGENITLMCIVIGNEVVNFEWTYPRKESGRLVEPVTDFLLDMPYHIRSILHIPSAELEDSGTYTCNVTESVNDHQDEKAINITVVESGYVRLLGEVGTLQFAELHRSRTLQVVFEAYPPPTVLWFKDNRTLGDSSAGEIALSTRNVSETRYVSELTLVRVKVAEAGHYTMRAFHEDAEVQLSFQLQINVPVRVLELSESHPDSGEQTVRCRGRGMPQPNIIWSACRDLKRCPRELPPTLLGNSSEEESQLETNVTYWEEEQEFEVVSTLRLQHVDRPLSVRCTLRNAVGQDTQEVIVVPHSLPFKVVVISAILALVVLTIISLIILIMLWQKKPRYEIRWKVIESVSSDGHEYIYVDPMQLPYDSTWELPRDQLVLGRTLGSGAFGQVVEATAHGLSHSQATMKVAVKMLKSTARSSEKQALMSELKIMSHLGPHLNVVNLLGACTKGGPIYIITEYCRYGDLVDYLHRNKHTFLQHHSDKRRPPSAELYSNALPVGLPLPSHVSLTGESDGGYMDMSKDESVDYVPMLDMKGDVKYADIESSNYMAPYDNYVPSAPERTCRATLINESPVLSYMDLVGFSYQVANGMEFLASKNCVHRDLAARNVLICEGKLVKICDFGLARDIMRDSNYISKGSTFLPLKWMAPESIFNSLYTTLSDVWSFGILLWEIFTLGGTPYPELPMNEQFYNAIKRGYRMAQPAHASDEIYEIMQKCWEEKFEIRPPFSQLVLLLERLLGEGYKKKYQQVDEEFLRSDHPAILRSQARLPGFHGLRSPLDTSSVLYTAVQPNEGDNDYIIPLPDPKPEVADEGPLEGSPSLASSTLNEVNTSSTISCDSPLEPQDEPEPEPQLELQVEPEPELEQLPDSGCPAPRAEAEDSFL
protocolSummary: Kinase inhibition assay (33P transfer), PDGFRB
Type: biochemical
conditionParameters: read-out: PDGFRB-1
property: IC50

molecule=Cc1ccc2c(c1)CCCN2c1ncnc(NCCc2cccnc2)n1 targetentity="PDGFRB (Homo sapiens, UniProt P09619)" reported="> 13 µM"
molecule=CN(c1cccc(Cl)c1)c1ncnc(Cl)n1 targetentity="PDGFRB (Homo sapiens, UniProt P09619)" reported="> 17.6 µM"
molecule=CCN(c1ccccc1)c1ncnc(Nc2cc(OC)c(OC)c(OC)c2)n1 targetentity="PDGFRB (Homo sapiens, UniProt P09619)" reported="1.05 to 6.29 µM"
molecule=Fc1ccc(CNc2ncccc2-c2ncnc(Nc3cccc(Cn4ccnc4)c3)n2)cc1 targetentity="PDGFRB (Homo sapiens, UniProt P09619)" reported="< 0.884 µM"
molecule=C=CCNc1nc2ccccc2n1-c1ncnc(Nc2cc(OC)c(OC)c(OC)c2)n1 targetentity="PDGFRB (Homo sapiens, UniProt P09619)" reported="< 0.923 µM"
molecule=COCCNc1ncnc(Nc2cc(-c3ccc(C(=O)OC)cc3)n[nH]2)n1 targetentity="PDGFRB (Homo sapiens, UniProt P09619)" reported="< 1.08 µM"
molecule=CN(c1cccc(Br)c1)c1ncnc(Nc2cccc(Cc3nnn[nH]3)c2)n1 targetentity="PDGFRB (Homo sapiens, UniProt P09619)" reported="0.913 to 5.48 µM"
molecule=COc1cc(Nc2ncnc(-n3c(NCc4cccc([N+](=O)[O-])c4)nc4ccccc43)n2)cc(OC)c1OC targetentity="PDGFRB (Homo sapiens, UniProt P09619)" reported="< 0.757 µM"
molecule=COc1ccc(Cl)cc1Nc1ncnc(Nc2cc(OC)c(OC)c(OC)c2)n1 targetentity="PDGFRB (Homo sapiens, UniProt P09619)" reported="< 0.957 µM"
molecule=COc1ccc(Nc2ncnc(Nc3ccc4c(c3)CCC4)n2)cc1OC targetentity="PDGFRB (Homo sapiens, UniProt P09619)" reported="< 1.1 µM"
molecule=CN(c1cccc(Cl)c1)c1ncnc(Nc2ccccc2)n1 targetentity="PDGFRB (Homo sapiens, UniProt P09619)" reported="1.28 to 7.7 µM"
molecule=Fc1ccc(Nc2ncnc(Nc3ccc4[nH]ncc4c3)n2)cc1Cl targetentity="PDGFRB (Homo sapiens, UniProt P09619)" reported="< 1.12 µM"
molecule=Cc1ccc(Cl)cc1Nc1ncnc(Nc2cc(Cl)ccc2C)n1 targetentity="PDGFRB (Homo sapiens, UniProt P09619)" reported="1.11 to 6.66 µM"
molecule=CCN(c1ccc(C)cc1)c1ncnc(Nc2cc(OC)c(OC)c(OC)c2)n1 targetentity="PDGFRB (Homo sapiens, UniProt P09619)" reported="1.01 to 6.07 µM"
molecule=COc1ccc(Nc2ncnc(NCc3cccc(Cl)c3)n2)cc1OC targetentity="PDGFRB (Homo sapiens, UniProt P09619)" reported="> 12.1 µM"
molecule=c1ccc(-c2cc(Nc3ncnc(Nc4cccc(-c5cnco5)c4)n3)[nH]n2)cc1 targetentity="PDGFRB (Homo sapiens, UniProt P09619)" reported="1.01 to 6.05 µM"
molecule=CN(c1cccc(Cl)c1)c1ncnc(Nc2cccc(OC(F)(F)F)c2)n1 targetentity="PDGFRB (Homo sapiens, UniProt P09619)" reported="1.01 to 6.06 µM"
molecule=Fc1ccc(CNc2ncccc2-c2ncnc(Nc3ccc4[nH]ncc4c3)n2)cc1 targetentity="PDGFRB (Homo sapiens, UniProt P09619)" reported="< 0.97 µM"
molecule=Cc1ccc2c(c1)CCCN2c1ncnc(Nc2cccc(Cc3nnn[nH]3)c2)n1 targetentity="PDGFRB (Homo sapiens, UniProt P09619)" reported="1 to 6.01 µM"
molecule=CCOC(=O)CNc1ncnc(N2CCCc3cc(C)ccc32)n1 targetentity="PDGFRB (Homo sapiens, UniProt P09619)" reported="> 13.7 µM"
molecule=COc1cc(Nc2ncnc(Nc3ccc4nn(C)cc4c3)n2)cc(OC)c1OC targetentity="PDGFRB (Homo sapiens, UniProt P09619)" reported="< 0.982 µM"
molecule=CN(c1ccc2c(cnn2Cc2ccccc2)c1)c1ncnc(Nc2cccc(Br)c2)n1 targetentity="PDGFRB (Homo sapiens, UniProt P09619)" reported="> 9.25 µM"
molecule=c1ccc(Nc2ncccc2-c2ncnc(Nc3cccc(Cn4ccnn4)c3)n2)cc1 targetentity="PDGFRB (Homo sapiens, UniProt P09619)" reported="< 0.949 µM"
molecule=COc1cc(Nc2ncnc(-c3cccnc3NC3CCCCC3)n2)cc(OC)c1OC targetentity="PDGFRB (Homo sapiens, UniProt P09619)" reported="< 0.916 µM"
molecule=COc1ccc(Nc2ncnc(Nc3ccc4ncsc4c3)n2)cc1OC targetentity="PDGFRB (Homo sapiens, UniProt P09619)" reported="< 1.05 µM"
molecule=C=CCN(c1cccc(Cl)c1)c1ncnc(Nc2cc(OC)cc(OC)c2)n1 targetentity="PDGFRB (Homo sapiens, UniProt P09619)" reported="1.01 to 6.03 µM"
molecule=COc1cc(Nc2ncnc(-n3c(NCc4ccc(C)cc4C)nc4ccccc43)n2)cc(OC)c1OC targetentity="PDGFRB (Homo sapiens, UniProt P09619)" reported="> 8.8 µM"
molecule=COc1ccc(Nc2ncnc(Nc3ccc4c(c3)C(=O)OC4)n2)cc1OC targetentity="PDGFRB (Homo sapiens, UniProt P09619)" reported="< 1.05 µM"
molecule=Cc1ccc2c(c1)CCCN2c1ncnc(Nc2cc[nH]n2)n1 targetentity="PDGFRB (Homo sapiens, UniProt P09619)" reported="1.3 to 7.81 µM"
molecule="COc1cc(Nc2ncnc(-n3c(NC4CCc5ccccc54)nc4ccccc43)n2)cc(OC)c1OC (centres unmarked)" targetentity="PDGFRB (Homo sapiens, UniProt P09619)" reported="6.87 to 8.83 µM"
molecule=NC(=O)Cc1ccc(Nc2ncnc(Nc3cc(-c4ccccc4)n[nH]3)n2)cc1 targetentity="PDGFRB (Homo sapiens, UniProt P09619)" reported="1.04 to 6.21 µM"
molecule=COC(=O)Cc1cccc(Nc2ncnc(-n3c(N)nc4ccccc43)n2)c1 targetentity="PDGFRB (Homo sapiens, UniProt P09619)" reported="1.07 to 6.39 µM"
molecule=COc1ccc(Nc2ncnc(N(C)c3ccc(Cl)cc3)n2)cc1OC targetentity="PDGFRB (Homo sapiens, UniProt P09619)" reported="< 1.08 µM"
molecule=c1ccc(CCNc2ncnc(Nc3ccc4c(cnn4Cc4ccccc4)c3)n2)cc1 targetentity="PDGFRB (Homo sapiens, UniProt P09619)" reported="> 10.7 µM"
molecule=CN(c1cccc(Cl)c1)c1ncnc(Nc2ccc3nn(C)cc3c2)n1 targetentity="PDGFRB (Homo sapiens, UniProt P09619)" reported="1.09 to 6.56 µM"
